Data credit: patent US20240181136A1

TEST DESCRIPTION: Visual assessment of thioglycolipid aggregation and hydrogel formation
Assay type: physicochemical
Design: key: G = gel; F = fibrous aggregation; C = clear solution; O = cloudy solution
COND: thioglycolipid concentration 0.1 wt %, room temperature
MEASURED PARAMETER: Visual assessment of aggregation and gelation

Recorded results for 5 molecules are shown here.
>>> df
                                smiles_code  observed_result
0  CCCCCCCCCCCCS[C@@H]1O[C@H](CO)[C@@H](O[C@@H]2O[C@H](CO)[C@@H](O)[C@H](O)[C@H]2O)[C@H](O)[C@H]1O                F
1  CCCCCCCCCCS[C@@H]1O[C@H](CO)[C@@H](O[C@@H]2O[C@H](CO)[C@@H](O)[C@H](O)[C@H]2O)[C@H](O)[C@H]1O                F
2  CCCCCCCCS[C@@H]1O[C@H](CO)[C@@H](O[C@@H]2O[C@H](CO)[C@H](O)[C@H](O)[C@H]2O)[C@H](O)[C@H]1O                C
3  CCCCCCCCS[C@@H]1O[C@H](CO)[C@@H](O[C@@H]2O[C@H](CO)[C@@H](O)[C@H](O)[C@H]2O)[C@H](O)[C@H]1O                C
4  CCCCCCCCCCS[C@@H]1O[C@H](CO)[C@@H](O[C@@H]2O[C@H](CO)[C@H](O)[C@H](O)[C@H]2O)[C@H](O)[C@H]1O            G + C

Here is another molecule to look at.
Entry under review: `CCCCCCCCCCCCS[C@@H]1O[C@H](CO)[C@@H](O[C@@H]2O[C@H](CO)[C@H](O)[C@H](O)[C@H]2O)[C@H](O)[C@H]1O` . Reported Visual assessment of aggregation and gelation?
O
